Provenance of the data: patent US20020028836A1

System: primary cultured guinea-pig urinary bladder (GPB) cells
Assay: Membrane hyperpolarization (MHP) assay, DiBAC(4)3 / FLIPR
Type: cell-based
Details: Cavia porcellus, maximal steady-state hyperpolarization, normalized to response with 10 μM P1075 (100%)
Measured Metric: Emax (%)

Compound | Test System | Measured Metric | Recorded Value
Cc1ccc(C(=O)NC(NC(=S)Nc2cccc(C)c2)C(F)(F)F)cc1 (centres unmarked) | primary cultured guinea-pig urinary bladder (GPB) cells | Emax | 65
Cc1ccc(C(=O)NC(NC(=S)Nc2cccc([N+](=O)[O-])c2)C(C)(C)C)cc1 (centres unmarked) | primary cultured guinea-pig urinary bladder (GPB) cells | Emax | 103
Cc1ccc(C(=O)NC(NC(=S)Nc2cccc(F)c2)C(F)(F)F)cc1 (centres unmarked) | primary cultured guinea-pig urinary bladder (GPB) cells | Emax | 91
CC(C)(C)C(NC(=O)c1ccc(Cl)cc1)NC(=NC#N)Nc1cccnc1 (centres unmarked) | primary cultured guinea-pig urinary bladder (GPB) cells | Emax | 72
CCC(CC)C(NC(=O)c1ccc(Cl)cc1)NC(=C[N+](=O)[O-])Nc1cccnc1 (centres unmarked) | primary cultured guinea-pig urinary bladder (GPB) cells | Emax | 99
C=CCC(C)(C)C(NC(=O)c1ccc(Cl)cc1)NC(=NC#N)Nc1cccnc1 (single isomer, unassigned; (-)) | primary cultured guinea-pig urinary bladder (GPB) cells | Emax | 55
CC(C)(C)C(NC(=O)c1ccc(Br)cc1)NC(=NC#N)Nc1cccnc1 (centres unmarked) | primary cultured guinea-pig urinary bladder (GPB) cells | Emax | 106
Cc1ccc(C(=O)NC(NC(=NC#N)Nc2cncnc2)C(Cl)(Cl)Cl)cc1 (centres unmarked) | primary cultured guinea-pig urinary bladder (GPB) cells | Emax | 96

----------
System: tissue strips obtained from Landrace pig bladders
Assay: Functional potassium channel opening activity in isolated bladder strips (field-stimulated twitch)
Conditions: maximal efficacy relative to P1075; field stimulation 0.05 Hz, 0.5 ms, 20 volts

Molecule | Efficacy (% P1075)
Cc1ccc(C(=O)NC(NC(=NC#N)Nc2cccnc2)C(C)(C)C)cc1 (single isomer, unassigned; (-)) [Example 57] | 85
CC1=C(CC(NC(=O)c2ccc(Cl)cc2)NC(=NC#N)Nc2cccnc2)C(C)(C)CCC1 (single isomer, unassigned; (-)) [Example 89] | 41
Cc1ccc(C(=O)NC(NC(=NC#N)Nc2cccnc2)C(C)(C)C)cc1 (stereo not shown) [Example 51] | 100
CC(C)(C)C(NC(=O)c1ccc(Cl)cc1)NC(=NC#N)Nc1cnc2ccccc2c1 (stereo not shown) [Example 83] | 62
CC(C)(C)CC(NC(=O)c1ccc(Cl)cc1)NC(=N[N+](=O)[O-])Nc1cccnc1 (single isomer, unassigned; (+)) [Example 125] | 92
CC(C)(C)CC(NC(=O)c1ccc(Cl)cc1)NC(=N[N+](=O)[O-])Nc1cccnc1 (single isomer, unassigned; (-)) [Example 126] | 94
CC(C)(C)CC(NC(=O)c1ccc(Cl)cc1)NC(=N[N+](=O)[O-])Nc1cccnc1 (stereo not shown) [Example 124] | 47

----------
We begin with a simple list: items and their reported Emax.
Tested on: primary cultured guinea-pig urinary bladder (GPB) cells
Assay: Membrane hyperpolarization (MHP) assay, DiBAC(4)3 / FLIPR
Type: cell-based
Details: Cavia porcellus, maximal steady-state hyperpolarization, normalized to response with 10 μM P1075 (100%)

Compound | Test System | Emax, %
O=C(CCc1ccccc1)NC(NC(=S)Nc1cccc([N+](=O)[O-])c1)C(Cl)(Cl)Cl (stereo not shown) | primary cultured guinea-pig urinary bladder (GPB) cells | 129
CSCCC(NC(=O)c1ccc(Cl)cc1)NC(=NC#N)Nc1cccnc1 (stereo not shown) | primary cultured guinea-pig urinary bladder (GPB) cells | 84
CC(C)(C)C(NC(=O)c1ccc(I)cc1)NC(=NC#N)Nc1cccnc1 (stereo not shown) | primary cultured guinea-pig urinary bladder (GPB) cells | 103
CC[C@H](C)[C@H](NC(=O)c1ccc(C)cc1)NC(=S)Nc1cccnc1 | primary cultured guinea-pig urinary bladder (GPB) cells | 50
